Values from patent US20260224758A1

molecular target: triton-extracted alpha-synuclein from PD Tissue (Homo sapiens); construct: tissue Analytic Biological Services Inc; host or cells: human PD temporal cortex grey matter, Triton X-100 insoluble pellet; assay: Alpha-synuclein tissue homogenate binding assay (Assay 1), displacement of [^3H]-1000; conditions: insoluble fraction of PD brain homogenate, [^3H]-1000 3.0 nM, Kd 0.90 nM; read-out: α-synuclein Tissue Ki (Assay 1)
pKi: −log10 of the molar value.
Measure Name: pKi

Sample answers from the record:
# Molecule, pKi
records = [
    ("COC[C@H]1CN(c2ncc(/C=C/c3ccc(-n4ccnc4)nc3)cn2)CCN1c1ncccn1 [Example 2]", 9.05),
    ("COC[C@H]1CN(c2ncc(C#Cc3cnc(-c4cnn(C)c4)nc3)cn2)CCN1c1cc(F)ncn1 [Example 94]", 9.12),
    ("COC[C@H]1CN(c2ccnc(F)c2)CCN1c1ncc(/C=C/c2ccc(-n3ccnc3)nc2)cn1 [Example 29]", 9.00),
    ("FCCOC[C@H]1CN(c2ncccn2)CCN1c1ncc(/C=C/c2ccc(-n3ccnc3)nc2)cn1 [Example 30]", 9.00),
    ("COC[C@H]1CN(c2ncc(C#Cc3ccc(-c4cc(F)ncn4)nc3)cn2)CCN1c1ncc(C#N)cn1 [Example 81]", 8.93),
]

1 = COCCOC[C@H]1CN(c2ncc(C#Cc3ccc(-n4ccnc4)nc3)c(F)n2)CCN1c1ncncn1 [Example 80]
2 = COC[C@H]1CN(c2ccccn2)CCN1c1ncc(/C=C/c2ccc(-c3cnco3)nc2)cn1 [Example 26]
3 = FCCOC[C@H]1CN(c2ncc(/C=C/c3ccc(-c4cnco4)nc3)cn2)CCN1c1ccncn1 [Example 42]
# rank by pKi, ascending (min first) Reply with the labels, ordered as the question asks.
2, 1, 3
(2: 8.51, 1: 8.82, 3: 9.11)

====

Overview of recorded pKi for various molecules
target: aggregated beta amyloid in AD tissue (Homo sapiens); assay: Competitive radioligand binding to pathological aggregated beta amyloid in AD tissue (Assay 2), displacement of [^3H]-105; details: Aβ-rich AD frontal cortex homogenate, [^3H]-105, Kd 11.0 nM
Sequence (P05067 672-711 limits assumed): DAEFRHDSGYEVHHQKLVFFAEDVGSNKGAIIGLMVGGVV
pKi: −log10 of the molar value.

# Molecule, Experimental System, Value Measured
measured = [
    ("COC[C@H]1CN(c2ncc(C#Cc3ccc(-n4ccnc4)nc3)cn2)CCN1c1nccc(F)n1", "aggregated beta amyloid in AD tissue (Homo sapiens)", "≤ 5.92"),
]

Which pKi value belongs to `COC[C@H]1CN(c2cc(Cl)ncn2)CCN1c1ncc(/C=C/c2ccc(-n3ccnc3)nc2)cn1` ?
≤ 4.92

Look up pKi: `COC[C@H]1CN(c2ncc(C#Cc3ccc(-n4ccnc4)nc3)cn2)CCN1c1ncccn1`
≤ 4.92

====

target: triton-extracted alpha-synuclein from PD Tissue (Homo sapiens, UniProt P37840); construct: tissue Analytic Biological Services Inc; host or cells: human PD temporal cortex grey matter, Triton X-100 insoluble pellet; assay: Alpha-synuclein tissue homogenate binding assay (Assay 1), displacement of [^3H]-1000; conditions: insoluble fraction of PD brain homogenate, [^3H]-1000 3.0 nM, Kd 0.90 nM; read-out: α-synuclein Tissue Ki (Assay 1)
Measure Name: Ki (nM)

The cases that follow already have their Ki on record.
# Compound, Experimental System, Measure Name, Unit Text, Value Measured
data = [
    ("COC[C@H]1CN(c2ncc(/C=C/c3ccc(-n4ccnc4)nc3)cn2)CCN1c1ncc(OCC(O)CF)cn1 (stereo partly shown)", "triton-extracted alpha-synuclein from PD Tissue (Homo sapiens, UniProt P37840)", "Ki", "nM", 0.52),
    ("OCC(F)COC[C@H]1CN(c2ncc(C#Cc3ccc(-n4ccnc4)nc3)cn2)CCN1c1ncccn1 (stereo partly shown)", "triton-extracted alpha-synuclein from PD Tissue (Homo sapiens, UniProt P37840)", "Ki", "nM", 0.913),
]

1 = CNCC1CN(c2cc(F)ncn2)CCN1c1ncc(C#Cc2ccc(-c3cnco3)nc2)cn1 (stereo not shown)
2 = FCCOCCOC[C@H]1CN(c2ncc(/C=C/c3ccc(-c4cnco4)nc3)cn2)CCN1c1ncncn1
Of 1 and 2 , whose reported Ki is numerically smaller? // caller expects the label of the chosen entry
1
(1: 1.1 nM, 2: 2 nM)

P = COC[C@@H]1CN(c2ncncn2)CCN1c1ncc(C#Cc2cnc(-c3cnn(CCF)c3)nc2)cn1
Q = COC[C@H]1CN(c2ncc(C#Cc3ccc(-n4ccnc4)nc3)cn2)CCN1c1ccnc(F)n1
R = COC[C@H]1CN(c2ncc(C#Cc3ccc(N4CC(F)C4)nc3)cn2)CCN1c1ncccn1
S = FCCOC[C@H]1CN(c2ncc(C#Cc3ccc(-n4cnnc4)nc3)cn2)CCN1c1ncccn1
Returns the items ordered by Ki, from maximum to minimum. # respond with the labels, arranged in the requested order
S, R, Q, P
(S: 4.09 nM, R: 2.56 nM, Q: 1.49 nM, P: 0.89 nM)

I = COC[C@H]1CN(c2ncc(C#Cc3cnc(-c4cnn(CCF)c4)nc3)cn2)CCN1c1ccc(F)cn1
II = COC[C@H]1CN(c2ncc(C#Cc3cnc(-c4cnn(CF)c4)nc3)cn2)CCN1c1ncncn1
Lab note: record which item had the higher Ki, I or II . // return label of chosen record
I
(I: 1.05 nM, II: 0.64 nM)

I = COC[C@H]1CN(c2ncc(/C=C/c3ccc(-n4ccnc4)nc3)cn2)CCN1c1ccccn1
II = COC[C@H]1CN(c2ncc(C#Cc3ccc(-n4cnnc4F)nc3)cn2)CCN1c1ncccn1
Among I and II , whose measured Ki is the smaller figure? Let me know the label of the one you choose.
I
(I: 0.7 nM, II: 5.06 nM)

A = FCCOC[C@H]1CN(c2ncc(/C=C/c3ccc(-n4ccnc4)nc3)cn2)CCN1c1ncccn1
B = COC[C@H]1CN(c2ncc(/C=C/c3ccc(-n4ccnc4)nc3)cn2)CCN1c1ccnc(F)n1
C = Cn1ccc(-c2ncc(C#Cc3cnc(N4CCN(c5ncncn5)[C@@H](COCCF)C4)nc3)cn2)n1
Ordering: ascending Ki. Output spec: a listing of the labels in the requested order.
A, B, C

====

target: triton-extracted alpha-synuclein from PD Tissue (Homo sapiens, UniProt P37840); construct: tissue Analytic Biological Services Inc; host or cells: human PD temporal cortex grey matter, Triton X-100 insoluble pellet; assay: Alpha-synuclein tissue homogenate binding assay (Assay 1), displacement of [^3H]-1000; details: Aβ Tissue Ki / α-synuclein Tissue Ki
Measure Name: Selectivity ratio (Assay 2/Assay 1)

Some compounds with known Selectivity ratio (Assay 2/Assay 1) results, for comparison:
# Compound, Selectivity ratio (Assay 2/Assay 1)
data = [
    ("COC[C@H]1CN(c2ncc(C#Cc3ccc(-n4cnnc4F)nc3)cn2)CCN1c1ncccn1", 237),
    ("COC[C@H]1CN(c2ncc(/C=C/c3ccc(-n4ccnc4)nc3)cn2)CCN1c1ncc(CF)cn1", 10909),
    ("COC[C@H]1CN(c2cc(F)ccn2)CCN1c1ncc(/C=C/c2ccc(-n3ccnc3)nc2)cn1", 13333),
]

A = OC[C@H]1CN(c2ccc(F)nc2)CCN1c1ncc(/C=C/c2ccc(-n3ccnc3)nc2)cn1
B = FCCOC[C@H]1CN(c2ncc(/C=C/c3ccc(-c4cnco4)nc3)cn2)CCN1c1ccncn1
Lowest Selectivity ratio (Assay 2/Assay 1)? choose A or B Selection: enter the item's label.
B

P = OC(CF)COC[C@H]1CN(c2ncc(C#Cc3ccc(-c4cnco4)nc3)cn2)CCN1c1ncncn1 (some centres unmarked)
Q = COC[C@H]1CN(c2ccccn2)CCN1c1ncc(/C=C/c2cnc3nc(C)cn3c2)cn1
Returns the identifier with the smallest measured Selectivity ratio (Assay 2/Assay 1) among P and Q . Respond with the label that goes with your answer.
P

====

target: triton-extracted alpha-synuclein from PD Tissue (Homo sapiens); construct: tissue Analytic Biological Services Inc; host or cells: human PD temporal cortex grey matter, Triton X-100 insoluble pellet; assay: Alpha-synuclein tissue homogenate binding assay (Assay 1), displacement of [^3H]-1000; conditions: insoluble fraction of PD brain homogenate, [^3H]-1000 3.0 nM, Kd 0.90 nM; read-out: α-synuclein Tissue Ki (Assay 1)
Measure Name: Ki (nM)

# Chemical Smiles, Ki (nM)
data = [
    ("COC[C@H]1CN(c2ncc(C#Cc3ccc(N4CCC(n5nccn5)CC4)nc3)cn2)CCN1c1ncccn1", 1.15),
    ("COC[C@H]1CN(c2ncc(C#Cc3ccc(-n4ccnc4)nc3)cn2)CCN1c1cncc(F)n1", 6.57),
    ("FCCCOC[C@H]1CN(c2ncc(C#Cc3ccc(-c4cnco4)nc3)cn2)CCN1c1ncncn1", 1.94),
    ("COCc1cnc(N2CCN(c3ncc(/C=C/c4ccc(-n5ccnc5)nc4)cn3)[C@@H](COC)C2)nc1", 0.8),
    ("COC[C@H]1CN(c2ncccn2)CCN1c1ncc(/C=C/c2ccc(-n3ccnc3)nc2)cn1", 1.3),
]

I = OC[C@H]1CN(c2ncc(/C=C/c3ccc(-n4ccnc4)nc3)cn2)CCN1c1ncccn1
II = FCCOC[C@H]1CN(c2ccncc2)CCN1c1ncc(/C=C/c2ccc(-n3ccnc3)nc2)cn1
Just curious, which one has the larger Ki reading, I or II ? Your choice should be expressed through its label.
I

1 = COC[C@H]1CN(c2ncc(C#Cc3ccc(N4CC[C@H](F)C4)nc3)cn2)CCN1c1ncccn1
2 = COC[C@H]1CN(c2cnc(C#Cc3ccc(-n4ccnc4)nc3)c(F)n2)CCN1c1ncccn1
3 = COC[C@H]1CN(c2ncc(C#Cc3cnc(-c4cnn(CCF)c4)nc3)cn2)CCN1c1ncc(F)cn1
Order these by Ki, descending, and give the full ranking. Put the labels in the order asked and list them.
2, 1, 3

a = Cn1nccc1-c1ncc(C#Cc2cnc(N3CCN(c4ncncn4)[C@@H](COCCF)C3)nc2)cn1
b = COC[C@H]1CN(c2cc(F)ncn2)CCN1c1ncc(/C=C/c2ccc(-n3ccnc3)nc2)cn1
Field: lower recorded Ki (choose a or b ) State the label of the item chosen.
b
(b: 1 nM, a: 1.96 nM)
